Entries and their melting point values follow.

Task item: Reported melting point, compound `COC(=O)c1ccc(O)c(C(=O)CC(=O)c2cccnc2)c1` : ____
Reply: 200 to 202 °C

More entries:
Task item: Reported melting point, compound Cc1oc(-c2ccccc2)nc1CCCc1ccc(CC(C(=O)O)c2cccnc2)cc1 (stereo not given) : ____
Reply: 112 to 114 °C

Task item: Reported melting point, compound `CCOc1cc2c(cc1OC)C(c1ccc(C(=O)N(C(C)C)[C@@H](C)CO)cc1)=N[C@@H]1CCN(C)C[C@H]21` : ____
Reply: 104 to 112 °C

Task item: Reported melting point, compound O=S(CCCCOc1ccc(C2=C(c3ccccc3)CCCc3cc(O)ccc32)cc1)Cc1ccccn1 (stereo not given) : ____
Reply: 162 °C

Task item: Reported melting point, compound `Brc1nc(-c2cccnc2)[nH]c1Br` : ____
Reply: 226 to 227 °C

Task item: Reported melting point, compound `COc1ncc(-c2ccncc2)cc1Br` : ____
Reply: 136 to 138 °C

Task item: Reported melting point, compound `CCc1ccc2oc3cc(C#N)cnc3c(=O)c2c1` : ____
Reply: 183 to 185 °C

Task item: Reported melting point, compound `CNC(=O)Cn1c(-c2cccc(Br)c2)nc2cccnc21` : ____
Reply: 199 to 201 °C

Task item: Reported melting point, compound `CC(C)c1onc(-c2ccccc2)c1S(=O)(=O)c1ccc(O)cc1` : ____
Reply: 173 to 174 °C

Task item: Reported melting point, compound `CN(C)Cc1cc(CCCCCCCOc2ccc(C3=NCCO3)cc2)on1` : ____
Reply: 69.5 to 70 °C

Task item: Reported melting point, compound COc1ccc2c(c1)CCC1C3CC4OCCOC4C3(C)CCC21C (stereo not given) : ____
Reply: 115 °C

Task item: Reported melting point, compound `Cn1c(C(O)(C(F)(F)F)C(F)(F)F)cc(-c2ccc(F)cc2)c1-c1ccc(F)cc1` : ____
Reply: 130 to 131 °C

Task item: Reported melting point, compound COC(=O)c1ccccc1C1=NC(C)(C(C)C)C(=S)N1 (stereo not given) : ____
Reply: 134 to 138 °C

Task item: Reported melting point, compound `O=CC(=O)c1ccc(OCCc2ccccc2)cc1` : ____
Reply: 44 to 59 °C

Task item: Reported melting point, compound `Sc1ccc(OCc2ccccc2)nn1` : ____
Reply: 155 to 157 °C

Task item: Reported melting point, compound `N#Cc1ccc(-c2cccc(OS(N)(=O)=O)c2)cc1Cn1cncn1` : ____
Reply: 137 to 138 °C

Task item: Reported melting point, compound `CN(C)C(=O)c1c(Oc2ccccc2)cccc1Oc1ccccc1` : ____
Reply: 109 to 111 °C

Task item: Reported melting point, compound NC(=O)N1CCN(CC(O)COc2ccc(O)cc2)CC1 (stereo not given) : ____
Reply: 198 to 201 °C

Task item: Reported melting point, compound `COCCNC(=O)c1cc(F)cc(-c2cccc3cc(Cc4ccc(F)c(Cl)c4)sc23)c1` : ____
Reply: 108 to 109 °C

Task item: Reported melting point, compound `CCN1C(=O)CN(C(=O)C(F)(F)F)Cc2cc(OC)c([N+](=O)[O-])cc21` : ____
Reply: 128 to 129 °C

Task item: Reported melting point, compound CCC1(CC)c2ccccc2C(CC)(CC)N1OC(COC(C)(C)C)c1ccccc1 (stereo not given) : ____
Reply: 85 to 86 °C
